B1: KLHL20 (parent)
chain: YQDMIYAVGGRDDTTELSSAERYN

- Variants of: B1
- assay_notes: protein stability index of a GFP-peptide fusion (GPS, HEK-293T) (PSI 1-6); higher = more stable;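 note: lentivirally expressed fusions sorted by FACS into six bins by GFP to DsRed ratio, PSI derived from sequencing read proportions per bin multiplied by bin number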
- particulars: c terminus: a fixed tail appended
Provide the reported protein stability index of each item.
Numbers only.

sequence_record | protein stability index
YMDMIYAVGGRDDTTELSSAERYN [Q2M] | 3.03

Provide reported protein stability index for each item, in the same order as listed.
1. YQDMIYAVGGEDDTTELSSAERYN [R11E]
2. YQDMIYAVGGRDDTTELSSATRYN [E21T]
3. DQDMIYAVGGRDDTTELSSAERYN [Y1D]
4. YQDMIYAVGGRDDTTELSSRERYN [A20R]
5. YQDMIYAVGGRDDTTELSSAERYE [N24E]
6. YQDMIYAVLGRDDTTELSSAERYN [G9L]

Result:
1. 3
2. 2.11
3. 5.33
4. 2.76
5. 2.66
6. 2.01

Provide reported protein stability index for each item, in the same order as listed.
1. YQDMIYAVGGRDDTTEFSSAERYN [L17F]
2. YQDMIYAVGGRDDTTELSSARRYN [E21R]
3. YQDMIYAVGGRDDTTELSSAELYN [R22L]
4. YQDMYYAVGGRDDTTELSSAERYN [I5Y]

Result:
2.14
1.75
2.15
2.21

Provide reported protein stability index for each item, in the same order as listed.
1. YQDMIYAVGGRQDTTELSSAERYN [D12Q]
2. YQDMIYAVGGRDDTTLLSSAERYN [E16L]
3. YQDMIYAVGGRDDRTELSSAERYN [T14R]
4. YQDMIYAVGGRDDTTELSSAERYH [N24H]
5. YQDMIYAVGGRDDTTELSSAERMN [Y23M]
6. YQDMIYAVGGRDDTTELSSQERYN [A20Q]
7. YQDMIYAVGGRDDTTELHSAERYN [S18H]
8. YQDMIYGVGGRDDTTELSSAERYN [A7G]

Result:
1: 2.09; 2: 2.67; 3: 2.13; 4: 2.44; 5: 2.29; 6: 2.91; 7: 2.9; 8: 3.01

Provide reported protein stability index for each item, in the same order as listed.
1. AQDMIYAVGGRDDTTELSSAERYN [Y1A]
2. YQDDIYAVGGRDDTTELSSAERYN [M4D]
3. YQDMIYAVGGRSDTTELSSAERYN [D12S]

Result:
[4.78, 3.48, 2.32]
